- test_description: qHTS Assay for Lipid Storage Modulators in Drosophila S3 Cells;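 also: cells counted by Cell Tracker Red CMTPX staining in the red channel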
- condition_set: BODIPY lipid droplet fluorescence, 18-24 h, cells fed with added oleic acid; measured here: cell count max response
Out of some 320,000 compounds screened, about 2,100 (0.66%) were called active. Inconclusive results (about 53%) are left out. Only a selection was taken, and actives are over-represented in it overall.
observed_property: cell number change (%)
Please give a number only; it is taken to be in %.

Some solved entries appear below for comparison.
>>> measured("C/C(=N\\NC(=O)c1c(C)nc2ccccn12)c1ccc(O)cc1O")
6.25
>>> measured("Cn1c(NC(=O)/C=C/c2c(F)cccc2Cl)cc(=O)n(C)c1=O")
12.8
>>> measured("C/C(=N\\NC(=O)c1c(C)nc2ccccn12)c1ccco1")
-20.6
>>> measured("COc1ccc(/C=C/C(=O)c2ccc(O)cc2)cc1")
-13.4
>>> measured("N#CCN1CCC/C1=C\\[N+](=O)[O-]")
11.9

Query :: Param item = Cc1nc2ccccn2c1C(=O)N/N=C/c1ccccc1 ; retrieve measured cell number change.
Result :: 9.24
